From: paper PMC3961306

The following compounds are listed with their measured %-inhibition of HIPK3 values.
study-target: panel of more than 300 wild-type and mutant kinases (313 kinase panel) (Homo sapiens)
test: Kinase profiling in a biochemical assay panel (mobility shift assays and ELISA), %-inhibition at 1 μM; selectivity entropy
conditions: kinase HIPK3; compound at 1 μM
Please respond with the number in % and leave the unit unwritten.

1) CNC(=O)c1cc(Oc2ccc(NC(=O)Nc3ccc(Cl)c(C(F)(F)F)c3)c(F)c2)ccn1    88
2) O=S(=O)(c1cccc2cnccc12)N1CCCNCC1    -0.764
3) Cc1ccc(C(=O)Nc2ccc(CN3CCN(C)CC3)c(C(F)(F)F)c2)cc1C#Cc1cnc2cccnn12    27

Now for a further compound.
# %-inhibition of HIPK3 of "CCCS(=O)(=O)Nc1ccc(F)c(C(=O)c2c[nH]c3ncc(-c4ccc(Cl)cc4)cc23)c1F" = -6

====

study-target: panel of more than 300 wild-type and mutant kinases (313 kinase panel) (Homo sapiens, UniProt O15146)
test: Kinase profiling in a biochemical assay panel (mobility shift assays and ELISA), %-inhibition at 1 μM; selectivity entropy
conditions: kinase MUSK; 1 μM
Each entry gets not met if its %-inhibition of MUSK stays under 60%, and met if its %-inhibition of MUSK is 60% or above.

These recorded examples may help you get a feel for the data.
1. CO[C@H]1C[C@@H]2CC[C@@H](C)[C@@](O)(O2)C(=O)C(=O)N2CCCC[C@H]2C(=O)O[C@H]([C@H](C)C[C@@H]2CC[C@@H](OCCO)[C@H](OC)C2)CC(=O)[C@H](C)/C=C(\C)[C@@H](O)[C@@H](OC)C(=O)[C@H](C)C[C@H](C)/C=C/C=C/C=C/1C [everolimus]    not met
2. CCN(CC)CCNC(=O)c1c(C)[nH]c(/C=C2\C(=O)Nc3ccc(F)cc32)c1C [sunitinib]    met
3. CO[C@H]1C[C@@H]2CC[C@@H](C)[C@@](O)(O2)C(=O)C(=O)N2CCCC[C@H]2C(=O)O[C@H]([C@H](C)C[C@@H]2CC[C@@H](OC(=O)C(C)(CO)CO)[C@H](OC)C2)CC(=O)[C@H](C)/C=C(\C)[C@@H](O)[C@@H](OC)C(=O)[C@H](C)C[C@H](C)/C=C/C=C/C=C/1C [temsirolimus]    not met
4. N#CC[C@H](C1CCCC1)n1cc(-c2ncnc3[nH]ccc23)cn1 [ruxolitinib]    not met
5. COc1cc2nccc(Oc3ccc(NC(=O)C4(C(=O)Nc5ccc(F)cc5)CC4)cc3)c2cc1OC [cabozantinib]    met
6. CS(=O)(=O)CCNCc1ccc(-c2ccc3ncnc(Nc4ccc(OCc5cccc(F)c5)c(Cl)c4)c3c2)o1 [lapatinib]    not met

Decide: is the reported value of %-inhibition of MUSK for CC(C)(C)c1nc(-c2cccc(NS(=O)(=O)c3c(F)cccc3F)c2F)c(-c2ccnc(N)n2)s1 [dabrafenib] equal to or greater than 60%? not met

Decide: is the reported value of %-inhibition of MUSK for Cc1ccc(Nc2nccc(N(C)c3ccc4c(C)n(C)nc4c3)n2)cc1S(N)(=O)=O [pazopanib] equal to or greater than 60%? not met

Decide: is the reported value of %-inhibition of MUSK for CNC(=O)c1cc(Oc2ccc(NC(=O)Nc3ccc(Cl)c(C(F)(F)F)c3)c(F)c2)ccn1 [regorafenib] equal to or greater than 60%? met

Decide: is the reported value of %-inhibition of MUSK for CCCS(=O)(=O)Nc1ccc(F)c(C(=O)c2c[nH]c3ncc(-c4ccc(Cl)cc4)cc23)c1F [vemurafenib] equal to or greater than 60%? not met

====

The following compounds are listed with their measured %-inhibition of p38γ values.
study-target: panel of more than 300 wild-type and mutant kinases (313 kinase panel) (Homo sapiens)
test: Kinase profiling in a biochemical assay panel (mobility shift assays and ELISA), %-inhibition at 1 μM; selectivity entropy
conditions: kinase p38γ; 1 μM
// unit must come after the numeric part

Recorded results for 2 compounds are shown here.
1. CO[C@H]1C[C@@H]2CC[C@@H](C)[C@@](O)(O2)C(=O)C(=O)N2CCCC[C@H]2C(=O)O[C@H]([C@H](C)C[C@@H]2CC[C@@H](OCCO)[C@H](OC)C2)CC(=O)[C@H](C)/C=C(\C)[C@@H](O)[C@@H](OC)C(=O)[C@H](C)C[C@H](C)/C=C/C=C/C=C/1C    -7%
2. COc1cc2c(Nc3ccc(Br)cc3F)ncnc2cc1OCC1CCN(C)CC1    -3.79%

Assay panel of more than 300 wild-type and mutant kinases (313 kinase panel) (Homo sapiens), sample "O=S(=O)(c1cccc2cnccc12)N1CCCNCC1" , %-inhibition of p38γ read: 1.68%

====

study-target: panel of more than 300 wild-type and mutant kinases (313 kinase panel) (Homo sapiens)
test: Kinase profiling in a biochemical assay panel (mobility shift assays and ELISA), %-inhibition at 1 μM; selectivity entropy
conditions: kinase PIM3; 1 μM
The following compounds are listed with their measured %-inhibition of PIM3 values.
Please respond with the number in % and leave the unit unwritten.

Recorded results for 4 compounds are shown here.
1) CCN(CC)CCNC(=O)c1c(C)[nH]c(/C=C2\C(=O)Nc3ccc(F)cc32)c1C    21
2) CC(=O)Nc1cccc(-n2c(=O)n(C3CC3)c(=O)c3c(Nc4ccc(I)cc4F)n(C)c(=O)c(C)c32)c1    8.44
3) CC(C)(C)c1nc(-c2cccc(NS(=O)(=O)c3c(F)cccc3F)c2F)c(-c2ccnc(N)n2)s1    9
4) Cc1ccc(Nc2nccc(N(C)c3ccc4c(C)n(C)nc4c3)n2)cc1S(N)(=O)=O    -4

# %-inhibition of PIM3 of "O=S(=O)(c1cccc2cnccc12)N1CCCNCC1" = 3.45

# %-inhibition of PIM3 of COc1cc2nccc(Oc3ccc(NC(=O)C4(C(=O)Nc5ccc(F)cc5)CC4)cc3)c2cc1OC [cabozantinib] = 0.402

====

The following compounds are listed with their measured %-inhibition of YES(T348I) values.
study-target: panel of more than 300 wild-type and mutant kinases (313 kinase panel) (Homo sapiens, UniProt P07947, T348I)
Sequence (P07947 whole entry T348I): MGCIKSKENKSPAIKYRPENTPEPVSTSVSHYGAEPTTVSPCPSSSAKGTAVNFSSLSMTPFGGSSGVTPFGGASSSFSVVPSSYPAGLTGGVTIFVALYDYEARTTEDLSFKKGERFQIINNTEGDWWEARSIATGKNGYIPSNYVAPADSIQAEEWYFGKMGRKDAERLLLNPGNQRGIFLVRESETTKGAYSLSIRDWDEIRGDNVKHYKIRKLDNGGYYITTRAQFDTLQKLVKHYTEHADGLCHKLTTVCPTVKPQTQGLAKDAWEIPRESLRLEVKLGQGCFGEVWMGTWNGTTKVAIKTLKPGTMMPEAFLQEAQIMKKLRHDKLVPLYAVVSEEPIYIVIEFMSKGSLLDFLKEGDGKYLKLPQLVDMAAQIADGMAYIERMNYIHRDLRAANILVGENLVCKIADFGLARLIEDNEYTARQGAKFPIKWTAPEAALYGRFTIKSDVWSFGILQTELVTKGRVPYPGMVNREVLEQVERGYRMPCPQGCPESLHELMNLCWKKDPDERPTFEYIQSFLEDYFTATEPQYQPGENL
test: Kinase profiling in a biochemical assay panel (mobility shift assays and ELISA), %-inhibition at 1 μM; selectivity entropy
conditions: kinase YES(T348I); compound at 1 μM
Please respond with the number in % and leave the unit unwritten.

Recorded results for 5 compounds are shown here.
1) CO[C@H]1C[C@@H]2CC[C@@H](C)[C@@](O)(O2)C(=O)C(=O)N2CCCC[C@H]2C(=O)O[C@H]([C@H](C)C[C@@H]2CC[C@@H](OC(=O)C(C)(CO)CO)[C@H](OC)C2)CC(=O)[C@H](C)/C=C(\C)[C@@H](O)[C@@H](OC)C(=O)[C@H](C)C[C@H](C)/C=C/C=C/C=C/1C    -0.177
2) O=S(=O)(c1cccc2cnccc12)N1CCCNCC1    6
3) CNC(=O)c1cc(Oc2ccc(NC(=O)Nc3ccc(Cl)c(C(F)(F)F)c3)c(F)c2)ccn1    40
4) COc1cc2nccc(Oc3ccc(NC(=O)C4(C(=O)Nc5ccc(F)cc5)CC4)cc3)c2cc1OC [cabozantinib]    67
5) COc1cc2c(Nc3ccc(Br)cc3F)ncnc2cc1OCC1CCN(C)CC1    100

# %-inhibition of YES(T348I) of "CC(=O)Nc1cccc(-n2c(=O)n(C3CC3)c(=O)c3c(Nc4ccc(I)cc4F)n(C)c(=O)c(C)c32)c1" = -2.82

# %-inhibition of YES(T348I) of "Cc1ccc(C(=O)Nc2ccc(CN3CCN(C)CC3)c(C(F)(F)F)c2)cc1C#Cc1cnc2cccnn12" = 96

# %-inhibition of YES(T348I) of "C[C@@H](Oc1cc(-c2cnn(C3CCNCC3)c2)cnc1N)c1c(Cl)ccc(F)c1Cl" = 93

# %-inhibition of YES(T348I) of "CO[C@H]1C[C@@H]2CC[C@@H](C)[C@@](O)(O2)C(=O)C(=O)N2CCCC[C@H]2C(=O)O[C@H]([C@H](C)C[C@@H]2CC[C@@H](OCCO)[C@H](OC)C2)CC(=O)[C@H](C)/C=C(\C)[C@@H](O)[C@@H](OC)C(=O)[C@H](C)C[C@H](C)/C=C/C=C/C=C/1C" = -0.414

# %-inhibition of YES(T348I) of "CCCS(=O)(=O)Nc1ccc(F)c(C(=O)c2c[nH]c3ncc(-c4ccc(Cl)cc4)cc23)c1F" = 4

====

study-target: panel of more than 300 wild-type and mutant kinases (313 kinase panel) (Homo sapiens)
test: Kinase profiling in a biochemical assay panel (mobility shift assays and ELISA), %-inhibition at 1 μM; selectivity entropy
conditions: kinase HER4; compound at 1 μM
The following compounds are listed with their measured %-inhibition of HER4 values.
Please respond with the number in % and leave the unit unwritten.

Recorded results for 10 compounds are shown here.
1) O=S(=O)(c1cccc2cnccc12)N1CCCNCC1 [fasudil]    -0.227
2) CC(=O)Nc1cccc(-n2c(=O)n(C3CC3)c(=O)c3c(Nc4ccc(I)cc4F)n(C)c(=O)c(C)c32)c1 [trametinib]    2.34
3) Cc1ccc(Nc2nccc(N(C)c3ccc4c(C)n(C)nc4c3)n2)cc1S(N)(=O)=O [pazopanib]    16
4) CC(C)(C)c1nc(-c2cccc(NS(=O)(=O)c3c(F)cccc3F)c2F)c(-c2ccnc(N)n2)s1 [dabrafenib]    23
5) CCCS(=O)(=O)Nc1ccc(F)c(C(=O)c2c[nH]c3ncc(-c4ccc(Cl)cc4)cc23)c1F [vemurafenib]    11
6) CO[C@H]1C[C@@H]2CC[C@@H](C)[C@@](O)(O2)C(=O)C(=O)N2CCCC[C@H]2C(=O)O[C@H]([C@H](C)C[C@@H]2CC[C@@H](OCCO)[C@H](OC)C2)CC(=O)[C@H](C)/C=C(\C)[C@@H](O)[C@@H](OC)C(=O)[C@H](C)C[C@H](C)/C=C/C=C/C=C/1C [everolimus]    -7
7) CNC(=O)c1cc(Oc2ccc(NC(=O)Nc3ccc(Cl)c(C(F)(F)F)c3)c(F)c2)ccn1 [regorafenib]    3.81
8) Cc1nc(Nc2ncc(C(=O)Nc3c(C)cccc3Cl)s2)cc(N2CCN(CCO)CC2)n1 [dasatinib]    103
9) COc1cc(Nc2c(C#N)cnc3cc(OCCCN4CCN(C)CC4)c(OC)cc23)c(Cl)cc1Cl [bosutinib]    102
10) Cc1ccc(C(=O)Nc2ccc(CN3CCN(C)CC3)c(C(F)(F)F)c2)cc1C#Cc1cnc2cccnn12 [ponatinib]    101

# %-inhibition of HER4 of CO[C@H]1C[C@@H]2CC[C@@H](C)[C@@](O)(O2)C(=O)C(=O)N2CCCC[C@H]2C(=O)O[C@H]([C@H](C)C[C@@H]2CC[C@@H](OC(=O)C(C)(CO)CO)[C@H](OC)C2)CC(=O)[C@H](C)/C=C(\C)[C@@H](O)[C@@H](OC)C(=O)[C@H](C)C[C@H](C)/C=C/C=C/C=C/1C [temsirolimus] = -5.46

# %-inhibition of HER4 of C[C@@H](Oc1cc(-c2cnn(C3CCNCC3)c2)cnc1N)c1c(Cl)ccc(F)c1Cl [crizotinib] = -18

# %-inhibition of HER4 of COc1cc2nccc(Oc3ccc(NC(=O)C4(C(=O)Nc5ccc(F)cc5)CC4)cc3)c2cc1OC [cabozantinib] = 23
